- ASSAY_TARGET: T1, mouse CD47 (mouse, UniProt Q61735 19-303)
- T1 construct: whole, on cells; also called CD47 on mouse red blood cells
- T1 sequence (looked up): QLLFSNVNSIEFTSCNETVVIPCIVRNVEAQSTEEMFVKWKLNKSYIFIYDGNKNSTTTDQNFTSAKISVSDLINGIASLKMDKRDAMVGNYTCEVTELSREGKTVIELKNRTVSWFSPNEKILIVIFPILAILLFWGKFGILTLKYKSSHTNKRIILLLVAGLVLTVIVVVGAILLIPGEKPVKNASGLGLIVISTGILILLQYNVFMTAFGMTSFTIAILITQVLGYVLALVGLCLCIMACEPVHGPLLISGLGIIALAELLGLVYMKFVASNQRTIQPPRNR
- MEASUREMENT_NOTES: flow cytometry on RBCs, antibody 10 ng/ml
Overview of reported mean fluorescence relative to chimeric antibody across a group of binders:

Consider the reported mean fluorescence relative to chimeric antibody for these binders:
- BINDER: "pVxK7b-037-hum07-LC/pVxK7b-037-hum07-HC (antibody, human IgG1, V domains shown, Full-length human IgG1/kappa in CHO supernatant; Variable entries end within framework 4 (...FGQG / ...WGQG); also called Clone 7) VH: QVQLQESGPGLVKPGATVKISCKVSGYTFTNYYVFWVRQARGQRLEWIGDINPVNGDTNFNEKFKNRVTITADKSTSTAYMELSSLRSEDTAVYYCARGGYTMDYWGQG VL: DIVMTQTPLSLPVTPGEPASISCRSSQSLVHSNGNTYLHWYLQKPGQSPQLLIYKVSYRFSGVPDRFSGSGSGTDFTLKISRVEAEDVGVYYCSQNTHVPRTFGQG"
  OBSERVED_MEASUREMENT: "0.4 fold of chimera"
- BINDER: "pVxK7b-037-hum08-LC/pVxK7b-037-hum08-HC (antibody, human IgG1, V domains shown, Full-length human IgG1/kappa in CHO supernatant; Variable entries end within framework 4 (...FGQG / ...WGQG); also called Clone 8) VH: QITLKESGPTLVKPTQTLTLTCTFSGYTFTNYYVFWIRQSPSRGLEWLGDINPVNGDTNFNEKFKNRFTISRDNAKNSLYLQMNSLRAEDTAVYYCARGGYTMDYWGQG VL: DIVMTQTPLSLPVTPGEPASISCRSSQSLVHSNGNTYLHWYQQKPGKAPKLLIYKVSYRFSGVPDRFSGSGSGTDFTLKISRVEAEDVGVYYCSQNTHVPRTFGQG"
  OBSERVED_MEASUREMENT: "0.7 fold of chimera"

mean fluorescence relative to chimeric antibody in this record for pVxK7b-037-hum18-LC/pVxK7b-037-hum18-HC (antibody, human IgG1, V domains shown, Full-length human IgG1/kappa in CHO supernatant; Variable entries end within framework 4 (...FGQG / ...WGQG); also called Clone 18) VH: EVQLVQSGAEVKKPGESLRISCKGSGYTFTNYYVFWIRQSPSRGLEWLGDINPVNGDTNFNEKFKNRVTITADKSTSTAYMELSSLRSEDTAVYYCARGGYTMDYWGQG VL: EIVLTQSPATLSVSPGERATLSCRSSQSLVHSNGNTYLHWYQQKPGQAPRLLIYKVSYRFSGVPSRFSGSGSGTDFTFTISSLEAEDAATYYCSQNTHVPRTFGQG : 1.3 fold of chimera

binder pVxK7b-037-hum06-LC/pVxK7b-037-hum06-HC (antibody, human IgG1, V domains shown, Full-length human IgG1/kappa in CHO supernatant; Variable entries end within framework 4 (...FGQG / ...WGQG); also called Clone 6) VH: QVQLQESGPGLVKPSQTLSLTCTVSGYTFTNYYVFWVRQARGQRLEWIGDINPVNGDTNFNEKFKNRLTISKDTSKNQVVLTMTNMDPVDTATYYCARGGYTMDYWGQG VL: DIQMTQSPSSLSASVGDRVTITCRSSQSLVHSNGNTYLHWYLQKPGQSPQLLIYKVSYRFSGIPARFSGSGSGTEFTLTISSLQSEDFAVYYCSQNTHVPRTFGQG , mean fluorescence relative to chimeric antibody observed: 1.2 fold of chimera
